# targetEntity: T1, human CD37 (human, UniProt P11049 1-278)
# T1 construct: Tetraspanin antigen; Expressed on 300-19 cells transfected with pSRa-CD37 (entire CDS) or endogenous on WSU-DLCL-2, BJAB and Ramos lymphoma cells; also called CD37 antigen; human CD37 wildtype
# T1 sequence: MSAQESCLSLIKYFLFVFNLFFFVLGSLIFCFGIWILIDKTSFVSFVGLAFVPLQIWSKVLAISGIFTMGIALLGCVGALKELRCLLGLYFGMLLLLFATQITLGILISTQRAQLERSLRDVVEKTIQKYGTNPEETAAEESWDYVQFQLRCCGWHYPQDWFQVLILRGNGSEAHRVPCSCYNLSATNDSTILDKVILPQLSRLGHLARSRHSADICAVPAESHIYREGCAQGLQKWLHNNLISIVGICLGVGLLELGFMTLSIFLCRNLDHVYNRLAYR
# assayNotes: flow cytometry titration on BJAB cells (FIG. 20A); apparent Kd
assayMetric: Kd (nM)
Note: unit nM is implicit; provide only the numeric part.

Any idea what its Kd is? The binder is huCD37-3-sulfo-mal-DM4 (antibody, human IgG1, kappa, V domains shown, DM4 attached through 3-sulfo-mal linker; attachment residues not stated; 3.5-4 DM4 per antibody, heavy chain version as for huCD37-3, see its note) VH: QVQVQESGPGLVAPSQTLSITCTVSGFSLTTSGVSWVRQPPGKGLEWLGVIWGDGSTNYHPSLKSRLSIKKDHSKSQVFLKLNSLTAADTATYYCAKGGYSLAHWGQGTLVTVSS VL: DIQMTQSPSSLSVSVGERVTITCRASENIRSNLAWYQQKPGKSPKLLVNVATNLADGVPSRFSGSGSGTDYSLKINSLQPEDFGTYYCQHYWGTTWTFGQGTKLEIKR 0.89

Others:
Any idea what its Kd is? The binder is huCD37-3-SPP-DM1 (antibody, human IgG1, kappa, V domains shown, DM1 attached through SPP linker; attachment residues not stated; 3.5-4 DM1 per antibody, heavy chain version as for huCD37-3, see its note) VH: QVQVQESGPGLVAPSQTLSITCTVSGFSLTTSGVSWVRQPPGKGLEWLGVIWGDGSTNYHPSLKSRLSIKKDHSKSQVFLKLNSLTAADTATYYCAKGGYSLAHWGQGTLVTVSS VL: DIQMTQSPSSLSVSVGERVTITCRASENIRSNLAWYQQKPGKSPKLLVNVATNLADGVPSRFSGSGSGTDYSLKINSLQPEDFGTYYCQHYWGTTWTFGQGTKLEIKR 0.56

Any idea what its Kd is? The binder is huCD37-3-SMCC-DM1 (antibody, human IgG1, kappa, V domains shown, DM1 attached through SMCC linker; attachment residues not stated; 3.5-4 DM1 per antibody, heavy chain version as for huCD37-3, see its note) VH: QVQVQESGPGLVAPSQTLSITCTVSGFSLTTSGVSWVRQPPGKGLEWLGVIWGDGSTNYHPSLKSRLSIKKDHSKSQVFLKLNSLTAADTATYYCAKGGYSLAHWGQGTLVTVSS VL: DIQMTQSPSSLSVSVGERVTITCRASENIRSNLAWYQQKPGKSPKLLVNVATNLADGVPSRFSGSGSGTDYSLKINSLQPEDFGTYYCQHYWGTTWTFGQGTKLEIKR 0.46

Any idea what its Kd is? The binder is huCD37-3 (antibody, human IgG1, kappa, V domains shown, also called huCD37-3 Ab; huCD37-3 antibody) VH: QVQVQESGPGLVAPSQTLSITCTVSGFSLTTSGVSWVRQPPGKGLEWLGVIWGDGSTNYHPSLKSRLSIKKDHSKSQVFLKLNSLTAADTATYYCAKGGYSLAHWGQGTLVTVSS VL: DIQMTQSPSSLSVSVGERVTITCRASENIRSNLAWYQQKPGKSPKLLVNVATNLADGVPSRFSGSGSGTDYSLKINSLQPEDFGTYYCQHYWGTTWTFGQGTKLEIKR 0.26

src = patent US20110256153A1
